ASSAYED SYSTEM: human NOP receptor (Homo sapiens, UniProt P41146)
Sequence (P41146 whole entry): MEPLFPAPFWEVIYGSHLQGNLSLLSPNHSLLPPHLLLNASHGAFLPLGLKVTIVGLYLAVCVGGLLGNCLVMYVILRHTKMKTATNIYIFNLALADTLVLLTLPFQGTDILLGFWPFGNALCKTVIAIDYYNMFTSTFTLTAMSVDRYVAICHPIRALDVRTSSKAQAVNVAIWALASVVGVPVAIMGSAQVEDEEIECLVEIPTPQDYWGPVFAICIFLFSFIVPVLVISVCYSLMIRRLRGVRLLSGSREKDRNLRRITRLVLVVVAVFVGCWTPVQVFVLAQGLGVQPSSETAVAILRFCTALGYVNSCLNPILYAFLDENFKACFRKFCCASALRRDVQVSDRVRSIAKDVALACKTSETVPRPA
ASSAY SUMMARY: Radioligand competition binding, [3H]N/OFQ, membranes of transfected CHO cells
CONDITION SET: [3H]N/OFQ displacement; Cheng-Prusoff; mean ± SEM, at least three experiments in triplicate; read-out: Receptor Binding, Ki NOP
MEASUREMENT LABEL: pKi
To interpret pKi, take it as minus log10 of a concentration measured in moles per litre.

Previously resolved entries follow.
>>> print(df.to_string())
                                   compound                            assayed_system  test_result
0  CC(C)[C@@H](CN1CCC(N2CCc3ccccc32)CC1)NC(=O)[C@H]1Cc2ccc(O)cc2CN1 [Compound 16]  human NOP receptor (Homo sapiens, UniProt P41146)         6.25
1  CC(C)[C@@H](CN1CCC(c2cccc(O)c2)CC1)NC(=O)[C@H]1Cc2ccc(CN)cc2CN1 [Compound 3]  human NOP receptor (Homo sapiens, UniProt P41146)         5.26
2  CC(C)[C@@H](CN1CCC(c2cccc(O)c2)CC1)NC(=O)[C@H]1Cc2ccc(CNS(C)(=O)=O)cc2CN1 [Compound 5]  human NOP receptor (Homo sapiens, UniProt P41146)         5.10
3  CC(C)[C@@H](CN1CCC(c2cccc(O)c2)CC1)NC(=O)[C@H]1Cc2ccc(CNC(=N)N)cc2CN1 [Compound 4]  human NOP receptor (Homo sapiens, UniProt P41146)         5.49

Lookup: I'd like to know its pKi. The compound in question is CC(C)[C@@H](CN1CCC(c2cccc(O)c2)CC1)NC(=O)[C@H]1Cc2ccc(C#N)cc2CN1 [Compound 2]
Found: 5.72

Lookup: I'd like to know its pKi. The compound in question is CC(C)[C@@H](CN1CCC(c2cccc(CN)c2)CC1)NC(=O)[C@H]1Cc2ccccc2CN1 [Compound 11]
Found: 6.69

Ref: paper PMC5643385
